TARGET: HLA-A*02:01 (peptide-receptive MHC class I molecule, heavy chain with beta-2-microglobulin) (human)
PROTOCOL DETAILS: UV-ligand exchange, anti-b2m ELISA; peptide exchange yield grade (>10% = +; >20% = ++; >50 = +++; >75% = ++++)
PARAMETER MEASURED: peptide exchange yield

Ask | State its peptide exchange yield: ALLTAVTNV (synthetic peptide; source gene LEMD2) [ALLTAVTNV (SEQ ID NO: 31)]
Reply | 50 to 75%

Ask | State its peptide exchange yield: VMHDSSFSV (synthetic peptide; source gene ADNP2) [VMHDSSFSV (SEQ ID NO: 53)]
Reply | > 75%

Ask | State its peptide exchange yield: YLETMNITL (synthetic peptide; source gene PGM2L1) [YLETMNITL (SEQ ID NO: 19)]
Reply | 50 to 75%

Ask | State its peptide exchange yield: KLLDNLHDL (synthetic peptide; source gene PGR) [KLLDNLHDL (SEQ ID NO: 1)]
Reply | > 75%

Ask | State its peptide exchange yield: ALDGKIYEL (synthetic peptide; source gene ARHGAP5) [ALDGKIYEL (SEQ ID NO: 39)]
Reply | 50 to 75%

Ask | State its peptide exchange yield: ALAPSEGVQAA (synthetic peptide; source gene MSX1) [ALAPSEGVQAA (SEQ ID NO: 12)]
Reply | > 75%

Ask | State its peptide exchange yield: RLDIQGTGQLL (synthetic peptide; source gene PIGR) [RLDIQGTGQLL (SEQ ID NO: 4)]
Reply | 50 to 75%

Ask | State its peptide exchange yield: VLLDIFTGV (synthetic peptide; source gene LIG3) [VLLDIFTGV (SEQ ID NO: 2)]
Reply | > 75%
